This collection of values is drawn from patent US20190248900A1.

- experimental.system: T1, M6
- T1 construct: also called PD1 mutant M6
- protocol.description: scFv-phage ELISA
Give OD490 for every item shown.
Would you mind answering with just the numeric figure?

Q: Supply OD490 value. Item: PD1-42G4 (antibody, V domains shown, scFv-phage in the screening ELISA; later whole IgG) VH: QVQLVESGGGLVKPGGSLRLSCAASGFTFSDYYMSWIRQAPGKGLEWVSDISASGNSIYYADSVKRRFTISRDNSKNSLYLQMNSLRAEDTAVYYCVTSGPFGEFRNWGLGTLVTVSS VL: DIQMTQSPSSLSASVGDRVTTTCRASQGISSYLAWYQQKPGKAPKLLIYAASTLQSGVPSRFSGSGSGTDFTLTISSLQPEDFATYFCQQSYTSPRTFGQGTKLDIK
A: 3.3

Q: Please report the measured OD490 for PD1-32A6 (antibody, V domains shown, scFv-phage in the screening ELISA; later whole IgG) VH: QVQLVQSGAEVKKPGSSVKVSCKASGDTFTRNAVSWVRQAPGEGLEWMADIIPIFGSANYAQKFQGRLTLTADVSTSTAYMELSSLRSEDTAVYYCARTIEGAFDIWGQGTMVTVSS VL: DIQMTQSPSSVSASVGDRVTITCRASQGIVSWLAWYQQKPGKAPRLLIYRASDLETGVPSRFSGSGSGTDFTLTISSLQPEDVATYYCQQADSFPLTFGGGTKVEIK
A: 2.9

Q: Tell me its OD490 given PD1-31F3 (antibody, V domains shown, scFv-phage in the screening ELISA; later whole IgG) VH: QVQLVQSGAEVKKPGSSVKVSCKASGGTFSSYAISWVRQAPGQGLEWMGGIIPLFSTAHSAQKFQGRVTITADESSSTAYMELSSLRSEDTAVYYCAKHKGLPFDWSPDGFDTWGQGTMVTVSS VL: QFVLTQPPSVSGAPGQRVIISCTGSSSNIGAGYDVHWYQQLPGTAPKVLIYGNSDRPSGVPDRFSASKSATSASLAITGLQAEDEADYYCQSYDSSLSGYVFGTGTKVTVL as the entry.
A: 3.3

Q: // fetch OD490 given entry PD1-48A9 (antibody, V domains shown, scFv-phage in the screening ELISA; whole IgG in the other assays) VH: QMQLVQSGAEVKKPGSSVKVSCKASGDTFTRYIINWVRQAPGQGLEWMGRVIPTLGLTTYAQNFQDTVTIIADKSTNTAYMELKNLRSEDTAVYYCARGYGSGAFDIWGQGTMITVSS VL: DIVMTQTPLSLPVTPGEPASISCRSSQSLLDSHDGNTYLDWYLQKPGQSPQLLIYTLSHRASGVPDRFSGSGSGTDFTLKISRVEAEDVGLYYCMQRIDFPYTFGQGTKVEIK
A: 3.9

Q: Identify the reported OD490 for the following entry. PD1-49A2 (antibody, V domains shown, scFv-phage in the screening ELISA; whole IgG in the other assays; also called Parent 49A2) VH: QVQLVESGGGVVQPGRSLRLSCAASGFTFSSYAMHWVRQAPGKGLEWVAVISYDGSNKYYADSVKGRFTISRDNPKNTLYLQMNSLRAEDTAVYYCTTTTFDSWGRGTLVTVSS VL: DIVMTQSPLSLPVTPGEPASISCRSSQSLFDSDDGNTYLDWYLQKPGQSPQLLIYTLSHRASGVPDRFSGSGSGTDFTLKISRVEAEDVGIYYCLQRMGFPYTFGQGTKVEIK
A: 3.9
